The entries below come with measured ELISA signal relative to background values attached.
target: T1, FX activation peptide 12-mer SSSGEAPDSITW (human); test: peptide ELISA
T1 peptide: SSSGEAPDSITW-biotin
Ends that are not written are not given here.
metric: ELISA signal relative to background

binder | metric | value.measured
Nb 701C06 (VHH, monovalent Nanobody; not shown: C-terminal FLAG3 and HIS6 tag) VHH: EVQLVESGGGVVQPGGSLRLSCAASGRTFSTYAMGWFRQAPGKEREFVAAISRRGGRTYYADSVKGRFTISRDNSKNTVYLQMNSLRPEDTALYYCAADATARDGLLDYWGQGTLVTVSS | ELISA signal relative to background | 0.9
Nb 701D07 (VHH, monovalent Nanobody; not shown: C-terminal FLAG3 and HIS6 tag) VHH: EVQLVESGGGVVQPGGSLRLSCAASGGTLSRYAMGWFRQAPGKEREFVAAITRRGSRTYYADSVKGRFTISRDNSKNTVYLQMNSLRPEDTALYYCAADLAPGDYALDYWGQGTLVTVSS | ELISA signal relative to background | 0.73
